B1: GA-binding protein alpha chain, residues 172 to 250; numbered along this chain, Q06546 (parent)
chain: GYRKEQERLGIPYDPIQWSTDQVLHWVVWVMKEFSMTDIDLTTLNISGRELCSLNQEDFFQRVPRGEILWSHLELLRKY

Variants of: B1
METHOD_NOTES: abundance fitness (aPCA) (normalised: wild type 0, dead -1); higher = more abundant; growth selection in yeast, the domain comes from the species named
MEASUREMENT_SETUP: Homo sapiens
RECORDED_ENDPOINT: abundance fitness

>>> endpoint_result("F59K")
-0.815
>>> endpoint_result("T37K")
0.039
>>> endpoint_result("M36V")
-0.013
>>> endpoint_result("Q6M")
-0.015
>>> endpoint_result("T43W")
-0.123
>>> endpoint_result("I11K")
-1.21
>>> endpoint_result("Q6S")
-0.221
>>> endpoint_result("L69S")
-0.882
>>> endpoint_result("T42N")
-0.083
>>> endpoint_result("W18S")
-0.835
>>> endpoint_result("M31A")
-0.046
>>> endpoint_result("Y79S")
0.038
>>> endpoint_result("L9Q")
0.016
>>> endpoint_result("E50N")
-0.252
>>> endpoint_result("Q61R")
-0.011
>>> endpoint_result("L75K")
-0.122
>>> endpoint_result("D40G")
-0.239
>>> endpoint_result("Y79K")
0.146
>>> endpoint_result("V27T")
-0.245
>>> endpoint_result("L9P")
-0.815
>>> endpoint_result("L73Q")
-0.713
>>> endpoint_result("L54R")
-0.682
>>> endpoint_result("M31T")
0.018
>>> endpoint_result("R62K")
-0.014
>>> endpoint_result("S47Y")
-0.637
>>> endpoint_result("T43M")
-0.043
>>> endpoint_result("V30T")
0.003
>>> endpoint_result("N55D")
0.008
>>> endpoint_result("E33A")
-0.139
>>> endpoint_result("Q17M")
-0.134
>>> endpoint_result("R77G")
-0.515
>>> endpoint_result("E5I")
0.004
>>> endpoint_result("R49H")
-0.152
>>> endpoint_result("R8K")
-0.024
>>> endpoint_result("N55M")
-0.291
>>> endpoint_result("I39C")
-0.042
>>> endpoint_result("D38K")
-0.091
>>> endpoint_result("G66C")
-0.298
>>> endpoint_result("E67S")
-0.057
>>> endpoint_result("S19N")
-0.053
>>> endpoint_result("P64V")
-0.406
>>> endpoint_result("K4F")
-0.131
>>> endpoint_result("S47D")
-0.07
>>> endpoint_result("K4C")
-0.27
>>> endpoint_result("K78W")
-0.23
>>> endpoint_result("T20S")
0.041
>>> endpoint_result("V63Q")
-0.235
>>> endpoint_result("C52G")
-0.575
>>> endpoint_result("E7P")
-0.891
>>> endpoint_result("T42K")
-0.131
>>> endpoint_result("R8E")
-0.054
>>> endpoint_result("L51I")
-0.374
>>> endpoint_result("E5C")
-0.288
>>> endpoint_result("L51T")
-0.825
>>> endpoint_result("R62D")
-0.797
>>> endpoint_result("V23M")
-0.844
>>> endpoint_result("Y13H")
-0.114
>>> endpoint_result("V27K")
-0.478
>>> endpoint_result("G10C")
-0.079
>>> endpoint_result("I39P")
-0.17
>>> endpoint_result("Q6W")
-0.498
>>> endpoint_result("E67W")
-0.153
>>> endpoint_result("P12L")
-0.955
>>> endpoint_result("F60P")
-0.527
>>> endpoint_result("S53F")
-0.269
>>> endpoint_result("F34P")
-0.605
>>> endpoint_result("E67A")
-0.029
>>> endpoint_result("T37E")
0.017
>>> endpoint_result("L54V")
-0.341
>>> endpoint_result("Y13F")
0.014
>>> endpoint_result("T42V")
-0.122
>>> endpoint_result("E5L")
-0.45
>>> endpoint_result("F34L")
-0.145
>>> endpoint_result("T43F")
-0.299
>>> endpoint_result("E74S")
-0.051
>>> endpoint_result("V28N")
-0.1
>>> endpoint_result("I11N")
-0.818
>>> endpoint_result("E67F")
-0.249
>>> endpoint_result("I39H")
-0.06
>>> endpoint_result("W26S")
-1.13
>>> endpoint_result("L76Q")
-0.416
>>> endpoint_result("R62Y")
-0.133
>>> endpoint_result("S47T")
0.03
>>> endpoint_result("V30D")
-0.763
>>> endpoint_result("I11R")
-0.808
>>> endpoint_result("E50G")
-0.594
>>> endpoint_result("L24S")
-0.104
>>> endpoint_result("F34T")
-0.061
>>> endpoint_result("V23W")
-1.04
>>> endpoint_result("K32N")
-0.024
>>> endpoint_result("L54G")
-0.791
